Values from patent US20240343814A1

molecular target: Recombinant human his-tagged IGF 1R extracellular domain protein (human) (UniProt P08069); experiment: SPR, captured IgG, IGF-1R ECD-his analyte, dissociation pH 7.4
kon listing for selected binders.
Give just the number in M⁻¹ s⁻¹; leave the unit off.

binder: VRDN-02546 (antibody, V domains shown) VH: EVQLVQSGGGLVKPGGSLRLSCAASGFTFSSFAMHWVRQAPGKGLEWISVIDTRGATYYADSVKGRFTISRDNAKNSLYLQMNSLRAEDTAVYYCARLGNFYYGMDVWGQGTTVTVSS VL: EIVLTQSPGTLSVSPGERATLSCRASQSIGSSLHWYQQKPGQAPRLLIKYASQSLSGIPDRFSGSGSGTDFTLTISRLEPEDFAVYYCHHSSRLPHTFGQGTKVEIK
observedProperty: kon
testValue: 121000
//
binder: VRDN-02507 (antibody, V domains shown) VH: EVQLVQSGGGLVKPGGSLRLSCAASGFTFSSHAMHWVRQAPGKGLEWISVIDTRGATYYADSVKGRFTISRDNAKNSLYLQMNSLRAEDTAVYYCARLGNFYYGMDVWGQGTTVTVSS VL: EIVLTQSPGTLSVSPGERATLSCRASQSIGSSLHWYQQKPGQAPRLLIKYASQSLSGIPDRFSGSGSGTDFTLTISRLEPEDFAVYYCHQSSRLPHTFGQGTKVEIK
observedProperty: kon
testValue: 199000
//
binder: VRDN-02526 (antibody, V domains shown) VH: EVQLVQSGGGLVKPGGSLRLSCAASGFTFSSFAMHWVRQAPGKGLEWISVIDTRGATYYADSVKGRFTISRDNAKNSLYLQMNSLRAEDTAVYYCARLGNFYYGMHVWGQGTTVTVSS VL: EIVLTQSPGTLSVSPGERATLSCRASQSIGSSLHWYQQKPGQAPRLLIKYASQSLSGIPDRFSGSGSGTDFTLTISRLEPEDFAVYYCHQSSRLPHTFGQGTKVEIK
observedProperty: kon
testValue: 184000
//
binder: VRDN-02504 (antibody, V domains shown) VH: EVQLVQSGGGLVKPGGSLRLSCAASGFTHSSFAMHWVRQAPGKGLEWISVIDTRGATYYADSVKGRFTISRDNAKNSLYLQMNSLRAEDTAVYYCARLGNFYYGMDVWGQGTTVTVSS VL: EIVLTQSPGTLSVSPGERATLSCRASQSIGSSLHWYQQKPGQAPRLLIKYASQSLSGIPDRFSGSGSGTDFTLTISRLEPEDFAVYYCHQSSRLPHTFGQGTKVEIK
observedProperty: kon
testValue: 36600

--- query ---
Look up kon: VRDN-02539 (antibody, V domains shown) VH: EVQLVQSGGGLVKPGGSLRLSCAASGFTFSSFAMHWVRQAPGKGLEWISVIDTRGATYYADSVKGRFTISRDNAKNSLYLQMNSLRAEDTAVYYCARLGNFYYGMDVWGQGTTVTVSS VL: EIVLTQSPGTLSVSPGERATLSCRASQSIGSSLHWYQQKPGQAPRLLIKHASQSLSGIPDRFSGSGSGTDFTLTISRLEPEDFAVYYCHQSSRLPHTFGQGTKVEIK
170000
